Tested on: Helicobacter pylori
Experiment: Antibacterial activity against metronidazole-sensitive Helicobacter pylori at 32 ug/disk after 3 to 5 days by filter paper disk diffusion method
Type: functional
Settings: read-out: IZ
# zone of inhibition at 32 µg/disc values compiled below
Quick reminder: number only, in mm, skip the unit.

Cn1c([N+](=O)[O-])cnc1-c1nnc(N2CCS(=O)(=O)CC2)s1    45

So, O=[N+]([O-])c1ccc(-c2nnc(N3CCOCC3)s2)s1 ? Its zone of inhibition at 32 µg/disc was 15

So, O=[N+]([O-])c1ccc(-c2nnc(N3CC[S+]([O-])CC3)s2)o1 ? Its zone of inhibition at 32 µg/disc was 46
